Listing of entries alongside the reported MIC.
tested on: Staphylococcus aureus; assay: Antibacterial activity against Staphylococcus aureus ATCC 25923 by agar dilution method; format: functional
Numeric answer only, unit µg/mL assumed.

These recorded examples may help you get a feel for the data.
Cc1cn(C[C@H]2CN(c3ccc(N4CCNCC4)c(F)c3)C(=O)O2)nn1.O=C(O)C(F)(F)F	4
CC(=O)N1CCN(c2ccc(N3C[C@H](Cn4cc(C)nn4)OC3=O)cc2F)CC1	2

Measured on Staphylococcus aureus, CCC(C)C(=O)N1CCN(c2ccc(N3C[C@H](Cn4cc(C)nn4)OC3=O)cc2F)CC1 (some centres not stated) has a documented MIC of 2

Measured on Staphylococcus aureus, Cc1cn(C[C@H]2CN(c3ccc(N4CCN(C(=O)C5CCCCC5)CC4)c(F)c3)C(=O)O2)nn1 has a documented MIC of 2

Measured on Staphylococcus aureus, Cc1cn(C[C@H]2CN(c3ccc(N4CCN(C(=O)/C=C/c5ccccc5)CC4)c(F)c3)C(=O)O2)nn1 has a documented MIC of 16

Measured on Staphylococcus aureus, Cc1cn(C[C@H]2CN(c3ccc(N4CCN(C=O)CC4)c(F)c3)C(=O)O2)nn1 has a documented MIC of 2

Measured on Staphylococcus aureus, Cc1cn(C[C@H]2CN(c3ccc(N4CCN(C(=O)C(C)C)CC4)c(F)c3)C(=O)O2)nn1 has a documented MIC of 1

Measured on Staphylococcus aureus, Cc1cn(C[C@H]2CN(c3ccc(N4CCN(C(=O)Cc5ccccc5)CC4)c(F)c3)C(=O)O2)nn1 has a documented MIC of 4

Measured on Staphylococcus aureus, Cc1cn(C[C@H]2CN(c3ccc(N4CCN(C(=O)C5CCC5)CC4)c(F)c3)C(=O)O2)nn1 has a documented MIC of 4

Measured on Staphylococcus aureus, CCSC(=O)N1CCN(c2ccc(N3C[C@H](Cn4cc(C)nn4)OC3=O)cc2F)CC1 has a documented MIC of 2

Measured on Staphylococcus aureus, Cc1cn(C[C@H]2CN(c3ccc(N4CCOCC4)c(F)c3)C(=O)O2)nn1 has a documented MIC of 2

Measured on Staphylococcus aureus, CCCCCC(=O)N1CCN(c2ccc(N3C[C@H](Cn4cc(C)nn4)OC3=O)cc2F)CC1 has a documented MIC of 4
